meta.source: BindingDB's records for doi:10.1016/s0968-0896(01)00282-6

Each entry below carries its measured log10 of IC50, system: Gag-Pol polyprotein [588-1027]/[588-1147] (Human immunodeficiency virus 1, UniProt P04585).
recorded endpoint: log10 of IC50 (log10 of the value in µM)

>  <molecule>
COC(=O)CCCC=C(c1ccc(OC)c(C(=O)OC)c1)c1ccc(OC)c(C(=O)OC)c1

>  <experimental result>
-0.30

$$$$
>  <molecule>
COC(=O)CCC/C=C\c1cc(C)c(OC)c(C(=O)OC)c1 [Alkenyldiarylmethane (ADAM) 10b]

>  <experimental result>
1.95

$$$$
>  <molecule>
COC(=O)CCC/C=C(/c1ccc(OC)c(C(=O)OC)c1)c1cc(Cl)c(OC)c(C(=O)OC)c1

>  <experimental result>
-0.23

$$$$
>  <molecule>
COC(=O)CCCC=C(c1ccc(OC)c(Cl)c1)c1ccc(OC)c(Cl)c1

>  <experimental result>
2.00

$$$$
>  <molecule>
COC(=O)CCC/C=C(/c1ccc(OC)c(OC)c1)c1cc(C)c(OC)c(C(=O)OC)c1

>  <experimental result>
-1.13

$$$$
>  <molecule>
COC(=O)CCC/C(=C\c1ccc(OC)c(Cl)c1)c1ccc(OC)c(Cl)c1

>  <experimental result>
2.00

$$$$
>  <molecule>
COC(=O)CCC/C=C/c1cc(C)c(OC)c(C(=O)OC)c1

>  <experimental result>
2.00

$$$$
